Would you mind telling me the reported viability at 24 h, 50000 µM of each entry?
- assayDetails: Toxicity in Homo sapiens (human) HepG2 cells assessed as cell viability at 50 mM after 24 hr by MTT assay
- Assay type: cell-based
- conditionSet: read-out: Activity
A number alone suffices; assume %.

Please give measured viability at 24 h, 50000 µM of the following entry: NNC(=O)c1ccncc1 [ISONIAZID]
91.3

Please give measured viability at 24 h, 50000 µM of the following entry: NC(=O)c1cnccn1 [PYRAZINAMIDE]
102

* * *

- assayDetails: Toxicity in pyrazinamide pretreated Homo sapiens (human) HepG2 cells assessed as cell viability at 200 mM after 24 hr by MTT assay
- Assay type: cell-based
- conditionSet: HepG2 cells pretreated with pyrazinamide, read-out: Activity
measurementKind: viability at 24 h, 200000 µM (%)
A number alone suffices; assume %.

Please give measured viability at 24 h, 200000 µM of the following entry: `NNC(=O)c1ccncc1`
56.1
